Test target: ErbB4 on neonatal rat cardiomyocytes (rat) (UniProt Q62956)
Sequence (Q62956 26-1308): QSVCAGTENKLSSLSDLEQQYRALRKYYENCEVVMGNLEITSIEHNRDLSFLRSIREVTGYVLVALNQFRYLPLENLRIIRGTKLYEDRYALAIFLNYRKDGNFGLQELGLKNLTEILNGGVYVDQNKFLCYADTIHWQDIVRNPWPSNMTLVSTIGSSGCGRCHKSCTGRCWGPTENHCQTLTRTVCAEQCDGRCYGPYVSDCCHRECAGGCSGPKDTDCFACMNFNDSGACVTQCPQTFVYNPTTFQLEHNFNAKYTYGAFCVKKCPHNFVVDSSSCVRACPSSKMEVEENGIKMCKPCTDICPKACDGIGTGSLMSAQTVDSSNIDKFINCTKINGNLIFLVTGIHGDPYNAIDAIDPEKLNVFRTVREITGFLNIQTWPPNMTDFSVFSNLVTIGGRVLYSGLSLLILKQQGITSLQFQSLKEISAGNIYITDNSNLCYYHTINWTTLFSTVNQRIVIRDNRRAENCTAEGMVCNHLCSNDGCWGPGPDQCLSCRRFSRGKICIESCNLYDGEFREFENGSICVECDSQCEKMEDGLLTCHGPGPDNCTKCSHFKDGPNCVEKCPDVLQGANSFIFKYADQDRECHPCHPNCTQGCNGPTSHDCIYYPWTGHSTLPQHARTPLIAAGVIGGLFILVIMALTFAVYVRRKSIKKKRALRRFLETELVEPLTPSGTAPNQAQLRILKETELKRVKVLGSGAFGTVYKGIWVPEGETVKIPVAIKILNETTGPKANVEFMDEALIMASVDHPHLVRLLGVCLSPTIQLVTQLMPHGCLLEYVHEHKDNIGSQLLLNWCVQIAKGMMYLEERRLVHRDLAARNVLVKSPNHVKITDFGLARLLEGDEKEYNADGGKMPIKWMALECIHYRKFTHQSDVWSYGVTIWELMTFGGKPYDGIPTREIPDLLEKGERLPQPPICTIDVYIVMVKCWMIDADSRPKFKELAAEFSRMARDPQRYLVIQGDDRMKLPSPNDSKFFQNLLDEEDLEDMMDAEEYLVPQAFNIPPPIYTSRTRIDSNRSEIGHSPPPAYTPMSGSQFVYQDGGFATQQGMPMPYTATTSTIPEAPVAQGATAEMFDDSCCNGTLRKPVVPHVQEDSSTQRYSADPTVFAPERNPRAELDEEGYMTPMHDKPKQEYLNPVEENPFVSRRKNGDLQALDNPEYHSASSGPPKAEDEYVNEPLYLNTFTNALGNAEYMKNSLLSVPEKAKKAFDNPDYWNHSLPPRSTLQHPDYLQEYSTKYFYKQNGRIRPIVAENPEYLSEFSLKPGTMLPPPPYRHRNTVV
Assay details: cell-based or functional assay
Observable: Selectivity SC/CM

Please give measured Selectivity SC/CM of the following entry: huNRG1(S177-Q237)(3G3)::GG::huFcSEFL2 (Pb) (Fc fusion) SHLVKCGEREKTFCVNGGECFMIEHLSIPSRFLCKCPNEFTGDRCQEDFMASFYKAEELYQGGDKTHTCPPCPAPELLGGPSVFLFPPKPKDTLMISRTPEVTCVVVDVSHEDPEVKFNWYVDGVEVHNAKTKPCEEQYGSTYRCVSVLTVLHQDWLNGKEYKCKVSNKALPAPIEKTISKAKGQPREPQVYTLPPSREEMTKNQVSLTCLVKGFYPSDIAVEWESNGQPENNYKTTPPVLDSDGSFFLYSKLTVDKSRWQQGNVFSCSVMHEALHNHYTQKSLSLSPGK
> 5400

Please give measured Selectivity SC/CM of the following entry: huNRG1(S177-Q237)(NRGE1L)::GG::huFcSEFL2 (Pb) (Fc fusion) SHLVKCGESHKSFCVNGGECYMVEGSSIPSRYLCKCPNEFTGDRCQDDFMASFYKAEELYQGGDKTHTCPPCPAPELLGGPSVFLFPPKPKDTLMISRTPEVTCVVVDVSHEDPEVKFNWYVDGVEVHNAKTKPCEEQYGSTYRCVSVLTVLHQDWLNGKEYKCKVSNKALPAPIEKTISKAKGQPREPQVYTLPPSREEMTKNQVSLTCLVKGFYPSDIAVEWESNGQPENNYKTTPPVLDSDGSFFLYSKLTVDKSRWQQGNVFSCSVMHEALHNHYTQKSLSLSPGK
> 4370

Please give measured Selectivity SC/CM of the following entry: huNRG1(S177-F229)(NRGE1D) (E47T_D48S_F49L_M50L) 6xHis (ligand) SHLVKCGESHKSFCVNGGECYMVEGSSIPSRYLCKCPNEFTGDRCQTSLLASFGGGGEGGGGAGGGGHHHHHH
> 10000

The measured values listed here are drawn from patent US20220402985A1.
